// reported log10 Ki per item
Molecular target: hCA II (Homo sapiens)
reported property: log10 Ki (log10 of the value in nM)

compound	log10 Ki
NS(=O)(=O)c1cccc(NC(=O)NCc2ccc(C(=O)Nc3nc(CC(=O)N4CC(=O)N5CCc6ccccc6C5C4)cs3)cc2)c1 (stereo not shown) [Compound 29b]	0.85
NS(=O)(=O)c1ccc(NC(=S)Nc2ccc([Se]Cc3ccc(C(=O)N4CC(=O)N5CCc6ccccc6C5C4)cc3)cc2)cc1 (stereo not shown)	2.12
NS(=O)(=O)c1ccc(NC(=S)N2CC(=O)N3CCc4ccccc4C3C2)cc1 (stereo not shown) [Compound 35a]	1.73
NS(=O)(=O)c1ccc(NC(=O)NCc2ccc(C(=O)N3CC(=O)N4CCc5ccccc5C4C3)cc2)cc1 (stereo not shown) [Compound 28a]	0.91
NS(=O)(=O)c1ccc(CCNC(=S)N2CC(=O)N3CCc4ccccc4C3C2)cc1 (stereo not shown) [Compound 35c]	0.88
NS(=O)(=O)c1ccc(CCNC(=O)N2CC(=O)N3CCc4ccccc4C3C2)cc1 (stereo not shown) [Compound 34c]	0.76

* * *

Biological target: UniProt:Q16790
Output criterion met for records whose Ki is lower than 80 nM, criterion not met for records at or above 80 nM.

compound	answer label
O=C(C1CCCCC1)N1CC(=O)N2CCc3ccccc3C2C1 (stereo not drawn) [PZQ, Praziquantel]	criterion not met
NS(=O)(=O)c1ccc(CCNC(=O)N2CC(=O)N3CCc4ccccc4C3C2)cc1 (stereo not drawn) [Compound 34c]	criterion not met
NS(=O)(=O)c1cccc(NC(=O)NCc2ccc(C(=O)Nc3nc(CC(=O)N4CC(=O)N5CCc6ccccc6C5C4)cs3)cc2)c1 (stereo not drawn) [Compound 29b]	criterion not met
NS(=O)(=O)c1ccc(NC(=S)Nc2ccc([Se]Cc3ccc(C(=O)N4CC(=O)N5CCc6ccccc6C5C4)cc3)cc2)cc1 (stereo not drawn) [Compound 9]	criterion not met
NS(=O)(=O)c1ccc(NC(=O)NCc2ccc(C(=O)Nc3nc(CC(=O)N4CC(=O)N5CCc6ccccc6C5C4)cs3)cc2)cc1 (stereo not drawn) [Compound 29a]	criterion met
NS(=O)(=O)c1ccc(CCC(=O)N2CC(=O)N3CCc4ccccc4C3C2)cc1 (stereo not drawn) [Compound 4b]	criterion not met
NS(=O)(=O)c1cccc(NC(=O)N2CC(=O)N3CCc4ccccc4C3C2)c1 (stereo not drawn) [Compound 34b]	criterion not met
NS(=O)(=O)c1ccc(NC(=O)N2CC(=O)N3CCc4ccccc4C3C2)cc1 (stereo not drawn) [Compound 34a]	criterion met

* * *

Listed here: compounds with reported pKi for hCA II (Homo sapiens).
pKi: −log10 of the molar value.
reported property: pKi

compound	reported property	value observed
NS(=O)(=O)c1ccc(CNC(=O)Nc2ccc(C(=O)N3CC(=O)N4CCc5ccccc5C4C3)cc2)cc1 (stereo not shown)	pKi	7.58
NS(=O)(=O)c1cccc(NC(=O)NCc2ccc(C(=O)N3CC(=O)N4CCc5ccccc5C4C3)cc2)c1 (stereo not shown) [Compound 28b]	pKi	7.83
NS(=O)(=O)c1cccc(NC(=S)N2CC(=O)N3CCc4ccccc4C3C2)c1 (stereo not shown) [Compound 35b]	pKi	8.10
NS(=O)(=O)c1cccc(NC(=O)N2CC(=O)N3CCc4ccccc4C3C2)c1 (stereo not shown) [Compound 34b]	pKi	7.34
NS(=O)(=O)c1ccc(CCNC(=O)Nc2ccc(C(=O)N3CC(=O)N4CCc5ccccc5C4C3)cn2)cc1 (stereo not shown)	pKi	7.31
NS(=O)(=O)c1ccc(NC(=O)N2CC(=O)N3CCc4ccccc4C3C2)cc1 (stereo not shown) [Compound 34a]	pKi	8.08
NS(=O)(=O)c1ccc(NC(=O)NCc2ccc(C(=O)Nc3nc(CC(=O)N4CC(=O)N5CCc6ccccc6C5C4)cs3)cc2)cc1 (stereo not shown) [Compound 29a]	pKi	7.30

* * *

Target: SmCA (Schistosoma mansoni, UniProt A0A3Q0KSG2)
Sequence (A0A3Q0KSG2 entry or part of it): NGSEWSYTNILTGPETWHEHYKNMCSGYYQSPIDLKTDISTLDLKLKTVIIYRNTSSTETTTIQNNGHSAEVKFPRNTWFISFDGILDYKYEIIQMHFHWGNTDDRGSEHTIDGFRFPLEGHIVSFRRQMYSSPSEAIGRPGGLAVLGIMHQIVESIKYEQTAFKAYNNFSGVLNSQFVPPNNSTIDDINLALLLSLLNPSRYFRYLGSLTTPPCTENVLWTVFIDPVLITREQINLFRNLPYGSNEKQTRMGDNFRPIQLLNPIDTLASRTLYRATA
Assay: biochemical
Details: stopped flow CO2 hydrase assay; mean from three different assays; read-out: Ki SmCA
pKi: −log10 of the molar value.
// reported pKi per item
reported property: pKi

molecule	value observed
NS(=O)(=O)c1ccc(CCNC(=O)Nc2ccc(C(=O)N3CC(=O)N4CCc5ccccc5C4C3)cn2)cc1 (stereo not shown)	6.24
NS(=O)(=O)c1ccc(NC(=S)N2CC(=O)N3CCc4ccccc4C3C2)cc1 (stereo not shown) [Compound 35a]	7.10
NS(=O)(=O)c1ccc(CNC(=O)Nc2ccc(C(=O)N3CC(=O)N4CCc5ccccc5C4C3)cc2)cc1 (stereo not shown)	5.20
NS(=O)(=O)c1cccc(NC(=O)NCc2ccc(C(=O)N3CC(=O)N4CCc5ccccc5C4C3)cc2)c1 (stereo not shown) [Compound 28b]	6.08

* * *

Target: SmCA (Schistosoma mansoni)
Assay: biochemical
Conditions: stopped flow CO2 hydrase assay; mean from three different assays; read-out: Ki SmCA
Description: An Applied Photophysics stopped-flow instrument was used to assay the CA catalysed CO2 hydration activity. […] The uncatalyzed rates were determined in the same manner and subtracted from the total observed rates. Stock solutions of the inhibitor (0.1 mM) were prepared in distilled–deionized water and dilutions up to 0.01 nM were done thereafter with the assay buffer. […]

molecule	Ki
NS(=O)(=O)c1cccc(NC(=S)N2CC(=O)N3CCc4ccccc4C3C2)c1 (stereo not shown) [Compound 35b]	6150 nM
NS(=O)(=O)c1ccc(CCNC(=S)N2CC(=O)N3CCc4ccccc4C3C2)cc1 (stereo not shown) [Compound 35c]	5 nM
NS(=O)(=O)c1ccc(NC(=O)N2CC(=O)N3CCc4ccccc4C3C2)cc1 (stereo not shown) [Compound 34a]	59.6 nM
NS(=O)(=O)c1cccc(NC(=O)NCc2ccc(C(=O)Nc3nc(CC(=O)N4CC(=O)N5CCc6ccccc6C5C4)cs3)cc2)c1 (stereo not shown) [Compound 29b]	901 nM

* * *

Target: hCA I (Homo sapiens, UniProt P00915)
Construct: made in house
Sequence (P00915 whole entry): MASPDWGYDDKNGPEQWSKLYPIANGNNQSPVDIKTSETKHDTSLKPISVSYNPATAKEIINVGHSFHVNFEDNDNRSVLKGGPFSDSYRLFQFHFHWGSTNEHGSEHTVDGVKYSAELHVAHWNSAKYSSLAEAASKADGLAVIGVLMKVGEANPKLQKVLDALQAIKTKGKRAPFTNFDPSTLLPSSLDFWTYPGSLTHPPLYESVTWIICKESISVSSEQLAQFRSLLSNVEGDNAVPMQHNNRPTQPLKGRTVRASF
Experiment: stopped flow CO2 hydrase assay, hCA I
Assay type: biochemical
Details: mean from three different assays
pKi: −log10 of the molar value.

molecule	pKi
NS(=O)(=O)c1ccc(NC(=O)NCc2ccc(C(=O)N3CC(=O)N4CCc5ccccc5C4C3)cc2)cc1 (stereo not shown) [Compound 28a]	7.13
NS(=O)(=O)c1ccc(NC(=O)NCc2ccc(C(=O)Nc3nc(CC(=O)N4CC(=O)N5CCc6ccccc6C5C4)cs3)cc2)cc1 (stereo not shown) [Compound 29a]	6.50
NS(=O)(=O)c1ccc(CCNC(=S)N2CC(=O)N3CCc4ccccc4C3C2)cc1 (stereo not shown) [Compound 35c]	7.19
NS(=O)(=O)c1ccc(CCNC(=O)N2CC(=O)N3CCc4ccccc4C3C2)cc1 (stereo not shown) [Compound 34c]	7.69
NS(=O)(=O)c1cccc(NC(=O)NCc2ccc(C(=O)Nc3nc(CC(=O)N4CC(=O)N5CCc6ccccc6C5C4)cs3)cc2)c1 (stereo not shown) [Compound 29b]	6.30
NS(=O)(=O)c1ccc(C(=O)Nc2nc(CC(=O)N3CC(=O)N4CCc5ccccc5C4C3)cs2)cc1 (stereo not shown)	7.23

* * *

// reported Ki per item
Target: UniProtKB A0A3S5H5R2
Sequence (A0A3S5H5R2 entry or part of it): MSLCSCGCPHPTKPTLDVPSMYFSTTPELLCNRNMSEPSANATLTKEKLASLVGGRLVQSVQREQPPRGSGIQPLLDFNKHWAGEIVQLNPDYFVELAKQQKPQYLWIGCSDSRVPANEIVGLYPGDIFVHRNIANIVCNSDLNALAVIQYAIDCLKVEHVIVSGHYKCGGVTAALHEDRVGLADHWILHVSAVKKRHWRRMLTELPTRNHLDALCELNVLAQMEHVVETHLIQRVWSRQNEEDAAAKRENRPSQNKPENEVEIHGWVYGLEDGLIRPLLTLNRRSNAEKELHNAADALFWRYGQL
Experiment: biochemical
Settings: stopped flow CO2 hydrase assay; mean from three different assays; read-out: Ki LdCA
reported property: Ki (nM)

compound	system	reported property	value units	value observed
NS(=O)(=O)c1cccc(NC(=O)NCc2ccc(C(=O)Nc3nc(CC(=O)N4CC(=O)N5CCc6ccccc6C5C4)cs3)cc2)c1 (stereo not shown) [Compound 29b]	UniProtKB A0A3S5H5R2	Ki	nM	218
NS(=O)(=O)c1ccc(NC(=O)NCc2ccc(C(=O)Nc3nc(CC(=O)N4CC(=O)N5CCc6ccccc6C5C4)cs3)cc2)cc1 (stereo not shown) [Compound 29a]	UniProtKB A0A3S5H5R2	Ki	nM	85.5
NS(=O)(=O)c1ccc(CCNC(=O)Nc2ccc(C(=O)N3CC(=O)N4CCc5ccccc5C4C3)cn2)cc1 (stereo not shown) [Compound 33]	UniProtKB A0A3S5H5R2	Ki	nM	87.5
NS(=O)(=O)c1ccc(NC(=S)N2CC(=O)N3CCc4ccccc4C3C2)cc1 (stereo not shown) [Compound 35a]	UniProtKB A0A3S5H5R2	Ki	nM	323
NS(=O)(=O)c1cccc(NC(=O)N2CC(=O)N3CCc4ccccc4C3C2)c1 (stereo not shown) [Compound 34b]	UniProtKB A0A3S5H5R2	Ki	nM	347
NS(=O)(=O)c1ccc(C(=O)N2CC(=O)N3CCc4ccccc4C3C2)cc1 (stereo not shown) [Compound 4a]	UniProtKB A0A3S5H5R2	Ki	nM	371
NS(=O)(=O)c1ccc(CNC(=O)Nc2ccc(C(=O)N3CC(=O)N4CCc5ccccc5C4C3)cc2)cc1 (stereo not shown) [Compound 32]	UniProtKB A0A3S5H5R2	Ki	nM	401
NS(=O)(=O)c1ccc(CCNC(=O)N2CC(=O)N3CCc4ccccc4C3C2)cc1 (stereo not shown) [Compound 34c]	UniProtKB A0A3S5H5R2	Ki	nM	362
NS(=O)(=O)c1ccc(NC(=O)NCc2ccc(C(=O)N3CC(=O)N4CCc5ccccc5C4C3)cc2)cc1 (stereo not shown) [Compound 28a]	UniProtKB A0A3S5H5R2	Ki	nM	340
NS(=O)(=O)c1cccc(NC(=S)N2CC(=O)N3CCc4ccccc4C3C2)c1 (stereo not shown) [Compound 35b]	UniProtKB A0A3S5H5R2	Ki	nM	237
NS(=O)(=O)c1cccc(NC(=O)NCc2ccc(C(=O)N3CC(=O)N4CCc5ccccc5C4C3)cc2)c1 (stereo not shown) [Compound 28b]	UniProtKB A0A3S5H5R2	Ki	nM	300
NS(=O)(=O)c1ccc(NC(=O)N2CC(=O)N3CCc4ccccc4C3C2)cc1 (stereo not shown) [Compound 34a]	UniProtKB A0A3S5H5R2	Ki	nM	253
NS(=O)(=O)c1ccc(CCNC(=S)N2CC(=O)N3CCc4ccccc4C3C2)cc1 (stereo not shown) [Compound 35c]	UniProtKB A0A3S5H5R2	Ki	nM	485
NS(=O)(=O)c1ccc(C(=O)Nc2nc(CC(=O)N3CC(=O)N4CCc5ccccc5C4C3)cs2)cc1 (stereo not shown) [Compound 30]	UniProtKB A0A3S5H5R2	Ki	nM	81.3
NS(=O)(=O)c1ccc(CCC(=O)N2CC(=O)N3CCc4ccccc4C3C2)cc1 (stereo not shown) [Compound 4b]	UniProtKB A0A3S5H5R2	Ki	nM	417
